Below: a set of entries, each annotated with reported melting point.

{"columns": ["compound", "valueMeasured"],
 "data": [
  ["CC(=O)NNC(=O)c1ccncc1", "158 to 160 °C"]
]}

# input compound: CCCCCCOc1ccc(NC(=O)c2cnn(C)c2C)cc1C#N ; wanted: its melting point 150 to 151 °C

# input compound: CCc1ccc(NC(=N)c2ccc(SC)cc2)cc1 ; wanted: its melting point 156 to 158 °C

# input compound: Cc1ccc(-c2ccc(C)c(C)n2)cc1 ; wanted: its melting point 76 °C

# input compound: NC(=O)c1ccc(-c2cnc3[nH]c(=O)n(CC4CCCCC4)c3n2)cc1 ; wanted: its melting point 293 to 295 °C

# input compound: COc1cc(N)c(Cl)cc1C(=O)NCC1CCN(CCCS(=O)(=O)Cc2ccc(F)cc2)CC1 ; wanted: its melting point 147 to 148 °C

# input compound: COc1ccc(C(C)=O)c(OCCCC(=O)O)c1 ; wanted: its melting point 127 to 129 °C

* * *

attributeMeasured: melting point

Below, each entry is followed by its recorded melting point result.
{"columns": ["molecule", "melting point"],
 "data": [
  ["Cc1ccc(Sc2nc(-c3ccccc3)cnc2N)cc1", "120 to 122 °C"],
  ["O=C(c1ccc(Cl)cc1)N1CCc2cc(S(=O)(=O)n3cc(-c4ccccc4)[nH]c3=O)ccc21", "220 to 221 °C"],
  ["O=C(Nc1cccc(CN2CCCCC2)c1)C1=Cc2cc(-c3ccccc3)ccc2CC1", "152 to 153 °C"]
]}

# input molecule: Cc1cc(NCc2ccc(Cl)cc2)nc(SCC#N)n1 ; wanted: its melting point 99 to 101 °C

# input molecule: NC(=Nc1ccc(CNC(=O)CCCCC2CCSS2)cc1)c1cccs1 (stereo not given) ; wanted: its melting point 152 °C

# input molecule: O=C1CCC2=C(CCc3cc(F)ccc32)N1 ; wanted: its melting point 223 to 224 °C

# input molecule: O=CNNc1ccnc2c(NC(=O)c3c(Cl)cccc3Cl)cccc12 ; wanted: its melting point 261 to 263 °C

# input molecule: O=C1CCCN(C(=O)c2ccc([N+](=O)[O-])cc2)c2cccnc21 ; wanted: its melting point 188 to 190 °C

# input molecule: O=C(NN1CCCCC1)c1nc(-c2ccc(Cl)cc2Cl)c(-c2ccc(Br)cc2)s1 ; wanted: its melting point 171 to 173 °C

# input molecule: C=CC(C)c1cc(C)c2c(c1O)C(N(C)C(=O)c1cccnc1)C1CCCCC21 (stereo not given) ; wanted: its melting point 183 to 184 °C

* * *

attributeMeasured: melting point

{"columns": ["compound", "melting point"],
 "data": [
  ["CC1(O)c2ccccc2-c2c1c(-n1ccnc1)nc1ccc(Br)cc21 (stereo not given)", "175 to 180 °C"],
  ["C[C@@H]1N[C@H](c2ccccc2)COC1=O", "82 to 83 °C"],
  ["O=S(=O)(c1ccccc1)n1ccc2c(CBr)cccc21", "127 to 128 °C"]
]}

# input compound: COc1ccc(-c2cccc(C(=O)NCCO)c2)c2cc(Cc3cccc(C(F)(F)F)c3)oc12 ; wanted: its melting point 111 to 112 °C

# input compound: O=C1c2ccccc2C2(c3ccccc3)N1CCS2(=O)=O (stereo not given) ; wanted: its melting point 190 to 193 °C

# input compound: O=C1CCC(N2C(=O)c3cccc(OCc4nc(CN5CCOCC5)cs4)c3C2=O)C(=O)N1 (stereo not given) ; wanted: its melting point 210 to 212 °C

# input compound: Sc1nc(-c2ccc(Cl)cc2)c(-c2cccs2)[nH]1 ; wanted: its melting point 274 to 276 °C

# input compound: OCCNCCNc1nnc(NCCNCCO)c2cc3ccccc3cc12 ; wanted: its melting point 129 to 131 °C

# input compound: Cc1cc(C)c(-c2cc(O)c(SCc3ccccc3)c(=O)o2)c(C)c1 ; wanted: its melting point 134 to 136 °C

# input compound: O=C(Nc1ccc(N2CCS(=O)(=O)CC2)c(C(F)(F)F)c1)N1CCc2cc(Oc3cc(Cl)ncn3)ccc21 ; wanted: its melting point 248 to 255 °C

* * *

attributeMeasured: melting point

Below, each entry is followed by its recorded melting point result.
{"columns": ["compound", "melting point"],
 "data": [
  ["O=C(O)Cc1ccc(NC(=O)C(COc2ccc(Cl)cc2)NS(=O)(=O)c2ccc(Br)cc2)cc1 (racemic)", "218 to 220 °C"],
  ["OCCCC#Cc1ccc(C(=C2CCCCCC2)c2ccc(O)cc2)cc1", "125 to 126 °C"],
  ["CCOc1ccc([N+](=O)[O-])cc1OC", "88 to 90 °C"],
  ["CN(CCc1ccncc1)S(=O)(=O)C1CCCCC1", "94 to 96 °C"],
  ["O=c1ncc2c3c(ccc2[nH]1)OCO3", "> 300 °C"]
]}

# input compound: CC(C)(C)C(=O)c1c[nH]c2ncc(-c3cc(OCCS(C)(=O)=O)cc(N4CCCC4)c3)nc12 ; wanted: its melting point 230 to 232 °C

# input compound: OCc1cccnc1Nc1ccccc1 ; wanted: its melting point 180 to 182 °C

# input compound: O=C(O)COc1c(F)ccc(-c2c3ccccc3c(Br)c3sc4ccccc4c23)c1F ; wanted: its melting point 195 to 197 °C

# input compound: CCOC(=O)C(C)O/N=C(\C(=O)O)c1csc(N)n1 (stereo not drawn) ; wanted: its melting point 166 °C

# input compound: O=C(c1cc(=O)c2cc(O)ccc2[nH]1)N1CCC(Oc2ccccc2)CC1 ; wanted: its melting point 270 °C

# input compound: COc1cc(S(C)=O)c(C)cc1OCC(C)=O (stereo not drawn) ; wanted: its melting point 104 to 106 °C

# input compound: CC/C=C\Cn1c(=S)sc2c(=O)[nH]c(N)nc21 ; wanted: its melting point > 320 °C

# input compound: CC(=O)c1ccc(Cc2ccc(F)cc2)o1 ; wanted: its melting point 27 to 29 °C

# input compound: O=C1CCC(CCN2CCN(c3cc(C(F)(F)F)ccc3F)CC2)CC1 ; wanted: its melting point 75 to 76 °C

# input compound: Oc1ccc2cnccc2c1 ; wanted: its melting point 218 to 220 °C

# input compound: Cn1c(=O)c2cnc(N)nc2n(-c2ccccc2)c1=O ; wanted: its melting point > 300 °C

* * *

Below: a set of entries, each annotated with reported melting point.

Below, each entry is followed by its recorded melting point result.
{"columns": ["molecule", "valueMeasured"],
 "data": [
  ["CNC(=O)n1nc(Oc2ccc([N+](=O)[O-])cc2C(F)(F)F)c(C)c1C", "113 to 115 °C"],
  ["CCOC(=O)C1Cc2c([nH]c3ccccc23)CN1C(=S)SC (stereo not given)", "139 to 141 °C"]
]}

# input molecule: COc1ccc(C2CNC(=O)C2)cc1OC(C)C(O)CN1CCN(c2ccccc2)CC1 (stereo not given) ; wanted: its melting point 116 to 118 °C

# input molecule: CCOC(=O)c1cc(-c2csc(C)n2)[nH]n1 ; wanted: its melting point 141 to 142 °C

# input molecule: COC(=O)c1ccc(O)c(C=O)c1 ; wanted: its melting point 80 to 81 °C

# input molecule: COc1cc(OC)c2c(C)c(CCN3CCC(O)(c4ccccc4)CC3)c(=O)oc2c1 ; wanted: its melting point 178 to 179 °C

# input molecule: CC(C)c1cccc(C(C)C)c1NC(=O)NCC1(S(=O)(=O)c2ccccc2)CCCC1 ; wanted: its melting point 124 °C

* * *

Below: a set of entries, each annotated with reported melting point.

{"columns": ["molecule", "valueMeasured"],
 "data": [
  ["CC1(C)OC(=S)Nc2ccc(-c3cccc(F)c3F)cc21", "197 to 198 °C"],
  ["Cc1nc(-c2c(Cl)cc(C(F)(F)F)cc2Cl)[nH]c1[N+](=O)[O-]", "316 to 318 °C"],
  ["Oc1ccc2cc(-c3cnc(Cc4ccc5ccccc5c4)o3)ccc2c1", "188 to 191 °C"],
  ["O=C1c2c(Cl)cccc2-n2cnc(C#Cc3ccccc3)c2[C@@H]2CCCN12", "241 to 242 °C"],
  ["C(=C\\c1nc2ccccc2n1-c1cccnc1)/c1ccccc1", "118 °C"]
]}

# input molecule: CN1CCN(C2=Nc3ccncc3Oc3ccccc32)CC1 ; wanted: its melting point 124 to 125 °C

* * *

Below: a set of entries, each annotated with reported melting point.

Below, each entry is followed by its recorded melting point result.
{"columns": ["molecule", "melting point"],
 "data": [
  ["N#Cc1ccc2c(c1)C(=O)c1cccn1CC2", "127 to 128 °C"],
  ["C=CCNC1=NN=C(c2ccc(Cl)cc2Cl)CS1", "188 to 189 °C"],
  ["c1ccc(COc2ccc(-c3nc4cccc(OCc5ccccc5)c4[nH]3)cc2C23CC4CC(CC(C4)C2)C3)cc1", "109 to 111 °C"],
  ["CCCCOc1ncc(C(C)=O)cc1-c1nc2c(CC)n(CC3CC3)nc2c(=O)[nH]1", "184 to 185 °C"]
]}

Next molecule, melting point to be filled in.
# input molecule: CC1(C)CC(=O)C2C3CCCOC3C2(C)C1 (stereo not given) ; wanted: its melting point 111 to 112 °C
